test system: MCF7 breast; test: NCI tumour cell line growth inhibition, 48 h
readout: GI50

Sample answers from the record:
O=C1Nc2c(C(F)(F)F)cccc2[C@@]1(c1ccc(O)cc1)c1ccc(OC(F)(F)F)cc1; < 10 nM
NC(N)=N/N=C/c1c(-c2cc(Cl)sc2Cl)nc2sccn12; 843 nM
COC1CCN(C(=O)c2cc(Cc3n[nH]c(=O)c4ccccc34)ccc2F)CC1; 60800 nM

Would you kindly look at the next entry?
With MCF7 breast as the test system, O=[N+]([O-])c1ccccc1N/N=C\c1c[nH]c2ccccc12 showed GI50 of 850 nM

====

system: TK-10 renal; test: NCI tumour cell line growth inhibition, 48 h
Where TGI equals or exceeds 30 µM, the correct label is 1 (yes); where it does not, the label is 0 (no).

CCCCCCCCOCC(O)COC(=O)CCCCCCC (stereo not given); 1 (yes)

-- ask Is reported TGI greater than or equal to 30 µM here: CC1CC(=O)Nc2ccccc2N1C(=O)CN1CCC(CCCCN(C)C)CC1 (stereo not given)
-- reply 1 (yes)

-- ask Is reported TGI greater than or equal to 30 µM here: Oc1ccc(N=C2CCC(=C(c3ccccc3)c3ccc(Nc4ccc(O)cc4)cc3)CC2)cc1
-- reply 1 (yes)

-- ask Is reported TGI greater than or equal to 30 µM here: Cc1ccc(C(SCC(N)C(=O)O)(c2ccc(C)cc2)c2ccc(C)cc2)cc1 (stereo not given)
-- reply 0 (no)

-- ask Is reported TGI greater than or equal to 30 µM here: Nc1nc2c(s1)CCc1c-2c(Br)n(Cc2ccccc2)c1Br
-- reply 0 (no)

-- ask Is reported TGI greater than or equal to 30 µM here: O=C(CN(/C=C/C(=O)C(F)(F)F)c1ccc(Cl)cc1)c1ccccc1
-- reply 1 (yes)

-- ask Is reported TGI greater than or equal to 30 µM here: COC(=O)C(CC(C)C)NC(=O)NC12CC3CC(CC(F)(C3)C1)C2 (stereo not given)
-- reply 1 (yes)

-- ask Is reported TGI greater than or equal to 30 µM here: CCOC(=O)[C@@]12C3C=CC(CC3)[C@]1(C(=O)c1ccccc1)C(=O)C(=O)N2c1ccccc1 (stereo not given in full)
-- reply 1 (yes)

-- ask Is reported TGI greater than or equal to 30 µM here: CC1CCC2(C(=O)O)CCC3(C)C(=CCC4C5(C)CCC(O)C(C)(C)C5CCC43C)C2C1C (stereo not given)
-- reply 1 (yes)

-- ask Is reported TGI greater than or equal to 30 µM here: Nc1cc(N2CCCC2)nc(=O)n1-c1ccccc1
-- reply 1 (yes)

-- ask Is reported TGI greater than or equal to 30 µM here: C=C(C)[C@@H]1CC[C@]2(C(=O)O)CC[C@]3(C)[C@H](CC[C@@H]4[C@@]5(C)C[C@@H](CC#Cc6ccc(C(F)(F)F)cc6)[C@H](O)C(C)(C)[C@@H]5CC[C@]43C)[C@@H]12
-- reply 1 (yes)

-- ask Is reported TGI greater than or equal to 30 µM here: C/C(=C\CCc1ccoc1)CC/C=C(\C)CCCN1CCOCC1
-- reply 0 (no)

-- ask Is reported TGI greater than or equal to 30 µM here: COC(=O)c1c(O)ccc2c1c1c(n2Cc2ccc(Cl)cc2Cl)C(=O)c2ccccc2C1=O
-- reply 0 (no)

-- ask Is reported TGI greater than or equal to 30 µM here: CC1(C)Cc2c(C#N)c(N)c3c(c2CO1)C(=O)OC3=O
-- reply 1 (yes)

-- ask Is reported TGI greater than or equal to 30 µM here: CC(=O)c1cc(C(=O)c2ccc3c(c2)Sc2ccccc2N3)c2c(C)cc(C)cn12
-- reply 1 (yes)

-- ask Is reported TGI greater than or equal to 30 µM here: COC(=O)/C=C(\C(=O)OC)c1c2c3c(cc(OC)c(OC)c3c3ccccc13)CCN2C
-- reply 1 (yes)

-- ask Is reported TGI greater than or equal to 30 µM here: COc1cc(OC)c(/C=C\c2cc(/C=C/c3c(OC)cc(OC)cc3OC)c3ccccc3[n+]2C)c(OC)c1
-- reply 1 (yes)

-- ask Is reported TGI greater than or equal to 30 µM here: CCCCCCCCCCCCCC1=NCCN1CCO
-- reply 0 (no)

-- ask Is reported TGI greater than or equal to 30 µM here: COc1ccc(/C(O)=C/c2nc3cccnc3nc2/C=C(\O)c2ccc(OC)cc2)cc1
-- reply 1 (yes)

====

system: CAKI-1 renal; experiment: NCI tumour cell line growth inhibition, 48 h
readout: TGI (µM)
Give bare numbers, in µM.

CN(Cc1cc(Br)cc(Br)c1O)Cc1cc(Br)cc(Br)c1O; 12.5

Would you kindly look at the next entry?
With CAKI-1 renal as the test system, O=C(c1ccccc1)c1ccc(Oc2ccc([N+](=O)[O-])cc2[N+](=O)[O-])cc1 showed TGI of 5.52

====

tested on: SNB-19 CNS; test: NCI tumour cell line growth inhibition, 48 h
Provide the reported TGI of each item.
Give bare numbers, in µM.

C=CC(C1=CC(=O)C(OC)=CC1=O)c1ccccc1 (stereo unspecified); 29.4

# batch: return TGI for each of the 2 molecules below
1. Cc1ccc2ncnc(N(CC(C)C)CC(C)C)c2c1
2. CC(C)(C)C(=O)OCOP(=O)(OCOC(=O)C(C)(C)C)C1CC(O)N(O)C1=O (stereo unspecified)

-- reply
1: 42.9; 2: 7.33

# batch: return TGI for each of the 2 molecules below
1. Nc1nc2c(s1)CCc1c-2c(Br)n(Cc2ccccc2)c1Br
2. NC1CCC(Nc2nc(NCc3ccc(-c4cccs4)nc3)c3ncn(C4CCCC4)c3n2)CC1 (stereo unspecified)

-- reply
[86.4, 3.75]

====

test system: CAKI-1 renal; test: NCI tumour cell line growth inhibition, 48 h
Provide the reported TGI of each item.

# batch: return TGI for each of the 3 compounds below
1. CC1=C/C(=N\O)C(C(O)(C(F)(F)F)C(F)(F)F)C(C)(C)C1 (stereo not given)
2. C=C[C@@H]1C[C@]2(C(=O)OC)Cc3nc4ccccc4nc3CC(C(=O)OC)=C2O1
3. CO/N=C(\C(=O)N(C)n1cnnc1)c1csc(NC(c2ccccc2)(c2ccccc2)c2ccccc2)n1

-- reply
1. > 10 µM
2. > 100 µM
3. > 10 µM

====

tested on: UACC-257 melanoma; experiment: NCI tumour cell line growth inhibition, 48 h
readout: TGI (µM)
Answers are plain numbers, in µM.

Sample answers from the record:
O=C(c1ccccc1)c1ccc(Oc2ccc([N+](=O)[O-])cc2[N+](=O)[O-])cc1; 29.2
O=C(CN(/C=C/C(=O)C(F)(F)F)c1ccc(Cl)cc1)c1ccccc1; 34.9
CC(=O)OC1CCCn2c1nc1c2C(=O)C(C)=C(N2CC2)C1=O (stereo not given); 0.587

# batch: return TGI for each of the 2 molecules below
1. CN(Cc1cc(Br)cc(Br)c1O)Cc1cc(Br)cc(Br)c1O
2. O=C(c1ccccc1)c1ccc(-n2c3ccccc3c3ccc4c(c32)C(=O)C=CC4=O)cc1

-- reply
1: 11.5; 2: 27.5

====

Provide the reported GI50 of each item.
system: UO-31 renal; test: NCI tumour cell line growth inhibition, 48 h

Sample answers from the record:
COC(=O)[C@]12CC[C@@H](C)[C@H](C)[C@@H]1C1=CC[C@@H]3[C@@]4(C)C(C=O)=C[C@@](C)(COC(C)=O)C4=CC[C@@]3(C)[C@]1(C)CC2; 3.61 µM
Cc1ccc(C(SCC(N)C(=O)O)(c2ccc(C)cc2)c2ccc(C)cc2)cc1 (centres undefined); 9.79 µM
O=C1c2nsnc2C(=O)c2c(F)c(F)c(F)c(F)c21; 0.702 µM

Would you kindly look at the next entry?
Query Cn1cc(C2=C(c3cn(C)c4c([N+](=O)[O-])cccc34)C(=O)NC2=O)c2ccccc21 yields GI50 of > 25 µM

====

Provide the reported TGI of each item.
system: 786-0 renal; assay: NCI tumour cell line growth inhibition, 48 h

Sample answers from the record:
COc1cc(C2C(C#N)=C(N)OC3=C2CCS(=O)(=O)c2ccc(C)cc23)cc(OC)c1OC (configuration not stated); > 100 µM
CN(C)CCN=C1Nc2ccccc2C(=S)N2CSCC12 (configuration not stated); > 100 µM
NC(=O)c1ccc(NN=O)nc1; > 100 µM
CCN1C(=O)N(CC)C2Nn3c(s/c(=C\c4ccccc4Br)c3=O)=NC21 (configuration not stated); > 100 µM
C=CCSC1=N/C(=C\c2cccs2)C(=O)N1CC=C; > 100 µM

# batch: return TGI for each of the 4 molecules below
1. CC1COc2c(N3CCN(C)CC3)c(F)cc3c(=O)c(C(=O)O)cn1c23 (configuration not stated)
2. CC1SC2=NC3=C(c4ccccc4C3=O)C(c3ccc(Cl)cc3)N2C1=O (configuration not stated)
3. COC(=O)C(CC(C)C)NC(=O)NC12CC3CC(CC(F)(C3)C1)C2 (configuration not stated)
4. COCCCNC(=O)C1=C(C)NC(C)=C(C(=O)NCCCOC)C1

-- reply
["> 100 µM", "> 100 µM", "> 100 µM", "> 100 µM"]

# batch: return TGI for each of the 7 molecules below
1. COC(=O)/C=C1/CCC(C)(C(=O)NS(=O)(=O)c2ccc(C)cc2)C1(C)C (configuration not stated)
2. COc1cc(OC)c(/C=C\c2ccnc3ccccc23)c(OC)c1
3. COc1ccc2c(c1)[n+](=O)c(C(=O)c1ccco1)c(C(F)(F)F)n2[O-]
4. NS(=O)(=O)c1ccc(NC2=CC(=O)C(=O)c3ccccc32)cc1
5. O=C(c1ccccc1)N1C2CCC1C(C(F)(F)F)=C2C(F)(F)F
6. CC1=CC[C@@]2(CO)[C@@H]([C@@H]1C)[C@H]1CC[C@@H]3[C@@]4(C)CC[C@H](O)C(C)(C)[C@@H]4CC[C@@]3(C)[C@]1(C)C[C@@H]2O
7. COC(=O)C(Cc1cc(OC)c(OC)c(OC)c1)c1ccc(OC)cc1 (configuration not stated)

-- reply
["> 100 µM", "17.8 µM", "54.1 µM", "> 100 µM", "> 100 µM", "> 100 µM", "> 100 µM"]

# batch: return TGI for each of the 2 molecules below
1. CC(=O)Nc1cc2c3c(c1)CCCN3CCC2
2. CNC(=O)OCc1c2ccncc2c(C)c2c1[nH]c1ccccc12

-- reply
1. > 100 µM
2. 14.2 µM

# batch: return TGI for each of the 4 molecules below
1. C[C@]12CC[C@H](O)C[C@H]1CC[C@@H]1[C@@H]2CC[C@]2(C)[C@@H](C3=CC(=O)OC3)[C@@H](O)C[C@]12O
2. CC(SC(=S)N1CCOCC1)C(=O)Nc1nnc(-c2ccccc2)o1 (configuration not stated)
3. COc1ccc(/C(O)=C/c2nc3cccnc3nc2/C=C(\O)c2ccc(OC)cc2)cc1
4. COc1ccc2cc(C(=O)O)ccc2c1OC

-- reply
["2.36 µM", "> 100 µM", "10.4 µM", "> 100 µM"]

# batch: return TGI for each of the 5 molecules below
1. CC1=C/C(=N\O)C(C(O)(C(F)(F)F)C(F)(F)F)C(C)(C)C1 (configuration not stated)
2. O=C(N=Nc1cccc(Cl)c1)NNc1cccc(Cl)c1
3. CCOC(=O)C(C)NC(=O)C(C)NC(=O)C(C)NC(=O)C(C)NC(=O)C(C)NC(=O)OCc1ccccc1 (configuration not stated)
4. CC(=O)NC1=C(NCCN(C)C)C(=O)c2ccccc2C1=O
5. C=C(C)[C@H]1C=C[C@@H](OC(=O)c2cccnc2)[C@@]23CO[C@@](C)([C@H](OC(=O)c4cccnc4)[C@@]4(OC(C)=O)C[C@H](C)[C@H](OCCC)[C@@H]4[C@H]2OC(C)=O)[C@H]13

-- reply
> 10 µM
28.4 µM
> 100 µM
> 50 µM
> 15 µM
